This collection of values is drawn from patent US12233161B1.

System: mice
Assay: In vivo delivery of FLuc-mRNA lipid nanoparticles in mice, in vivo imaging (IVIS)
Details: IV, liver; DMG-PEG2000:DSPC:Chol:compound 1.40:11.15:38.95:48.50, N/P 20
Kindly state % of organ targeting for each of the entries shown.
Report the value in % with no unit label.

Query block: Answer with the recorded % of organ targeting of CCCCCCCCCCCCOC(=O)C(O)CN(CCOCCOCCN(CC(O)C(=O)OCCCCCCCCCCCC)CC(O)C(=O)OCCCCCCCCCCCC)CC(O)C(=O)OCCCCCCCCCCCC (centres unmarked) [Compound L0309] only.
Result block: 21.49

Query block: Answer with the recorded % of organ targeting of CCCCCCCCCCNC(=O)C(O)CN(CCCCCCCN(CC(O)C(=O)NCCCCCCCCCC)CC(O)C(=O)NCCCCCCCCCC)CC(O)C(=O)NCCCCCCCCCC (centres unmarked) [Compound L0323] only.
Result block: 44.01

Query block: Answer with the recorded % of organ targeting of CCCCCCOCOCCCCCCOC(=O)C(O)CN(CCOCCOCCN(CC(O)C(=O)OCCCCCCOCOCCCCCC)CC(O)C(=O)OCCCCCCOCOCCCCCC)CC(O)C(=O)OCCCCCCOCOCCCCCC (centres unmarked) [Compound L0329] only.
Result block: 25.67

Query block: Answer with the recorded % of organ targeting of CCCCCCOCOCCCCCCOC(=O)C(O)CN(CCOCCN(CC(O)C(=O)OCCCCCCOCOCCCCCC)CC(O)C(=O)OCCCCCCOCOCCCCCC)CC(O)C(=O)OCCCCCCOCOCCCCCC (centres unmarked) [Compound L0330] only.
Result block: 29.70

Query block: Answer with the recorded % of organ targeting of CCCCCCCCCCCCNC(=O)C(O)CN(CCOCCOCCN(CC(O)C(=O)NCCCCCCCCCCCC)CC(O)C(=O)NCCCCCCCCCCCC)CC(O)C(=O)NCCCCCCCCCCCC (centres unmarked) [Compound L0305] only.
Result block: 35.21
